# TARGET OF ASSAY: T1, monomeric cynomolgus monkey CSF1R ectodomain protein (cynomolgus monkey, UniProt P07333 20-517 (human entry))
# T1 construct: also called monomeric cyno CSF1R; Cyno CSF1R
# T1 chain: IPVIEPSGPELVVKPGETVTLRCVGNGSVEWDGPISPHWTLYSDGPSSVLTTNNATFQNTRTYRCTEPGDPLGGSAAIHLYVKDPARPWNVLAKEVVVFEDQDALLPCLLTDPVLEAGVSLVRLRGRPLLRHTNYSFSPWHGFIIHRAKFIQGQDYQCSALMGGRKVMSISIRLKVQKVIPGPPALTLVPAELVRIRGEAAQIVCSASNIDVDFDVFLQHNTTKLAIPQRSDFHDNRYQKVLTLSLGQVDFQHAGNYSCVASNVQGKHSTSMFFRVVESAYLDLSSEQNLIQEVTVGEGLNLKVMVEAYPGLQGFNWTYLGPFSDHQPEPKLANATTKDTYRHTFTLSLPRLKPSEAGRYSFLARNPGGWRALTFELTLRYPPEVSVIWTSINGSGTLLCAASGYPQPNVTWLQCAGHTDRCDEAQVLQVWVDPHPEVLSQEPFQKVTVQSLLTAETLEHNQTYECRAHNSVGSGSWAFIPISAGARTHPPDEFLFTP
# ASSAY SUMMARY: SPR Biacore, IgG captured, monomeric CSF1R analyte
Measured koff, listed per entry for reference.
ENDPOINT NAME: koff (s⁻¹)

INSERT INTO measurements (binder, endpoint_name, measured_number) VALUES
  ('MH11 (antibody, human IgG4, V domains shown, Deimmunized MH5 derivative, human IgG4(S228P)/Ckappa IgG) VH: QVQLVQSGAEVKKPGSSVKVSCKASGYTFSSNYMIWVRQAPGQGLEWMGDINPYNGGANYAQKFQGRVTITADESTSTAYMELSSLRSEDTAVYYCAREGPYFSNLYVMDYWGQGTLVTVSS VL: EIVLTQSPATLSLSPGERATLSCRASQSVSYEGENYLNWYQQKPGQAPRAAIYAASNRATGIPARFSGSGSGTDFTLTISSPEPEDFAVYYCQLSNEDLLTFGGGTKVEIK', 'koff', 0.00103),
  ('MH32 (antibody, human IgG4, V domains shown, Deimmunized MH5 derivative, human IgG4(S228P)/Ckappa IgG; also called MN32) VH: QVQLVQSGAEVKKPGSSVKVSCKASGYTFSSAYMIWVRQAPGQGLEWMGDINPYNGGANYAQKFQGRVTITADESTSTAYMELSSLRSEDTAVYYCAREGPYFSNLYVMDYWGRGTLVTVSS VL: EIVLTQSPATLSLSPGERATLSCRASQSVSYEGENYLNWYQQKPGQAPRSLIYAASDRATGIPARFSGSGSGTDFTLTISSPEPEDFAVYYCQLSNEDLLTFGGGTKVEIK', 'koff', 0.00103),
  ('MH5 (antibody, human IgG4, V domains shown, Designer (maximally humanized) clone; tested as human IgG4(S228P)/Ckappa IgG; also called mAb-2) VH: QVQLVQSGAEVKKPGSSVKVSCKASGYTFSSYYMIWVRQAPGQGLEWMGDINPYNGGANYAQKFQGRVTITADESTSTAYMELSSLRSEDTAVYYCAREGPYFSNLYVMDYWGQGTLVTVSS VL: EIVLTQSPATLSLSPGERATLSCRASQSVSYEGENYLNWYQQKPGQAPRLLIYAASNRATGIPARFSGSGSGTDFTLTISSPEPEDFAVYYCQLSNEDLLTFGGGTKVEIK', 'koff', 0.00031),
  ('murine anti-CSF1R antibody 0301 (mu0301), v-domains in human IgG4(S228P) format (antibody, V domains shown) VH: EVQLQQSGPELVRPGASVKMSCKASGYTFTDNYMIWVKQSHGKSLEWIGDINPYNGGTTFNQKFKGKATLTVEKSSSTAYMQLNSLTSEDSAVYYCARESPYFSNLYVMDYWGQGTSVTVSS VL: NIVLTQSPASLAVSLGQRATISCKASQSVDYDGDNYMNWYQQKPGQPPKLLIYAASNLESGIPARFSGSGSGTDFTLNIHPVEEEDAATYYCHLSNEDLSTFGGGTKLEIK', 'koff', '7.4e-05'),
  ('MH10 (antibody, human IgG4, V domains shown, Deimmunized MH5 derivative, human IgG4(S228P)/Ckappa IgG) VH: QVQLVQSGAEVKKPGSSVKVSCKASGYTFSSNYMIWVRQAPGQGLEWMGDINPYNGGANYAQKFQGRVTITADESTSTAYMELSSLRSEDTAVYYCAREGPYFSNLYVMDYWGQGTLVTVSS VL: EIVLTQSPATLSLSPGERATLSCRASQSVSYEGENYLNWYQQKPGQAPRSAIYAASNRATGIPARFSGSGSGTDFTLTISSPEPEDFAVYYCQLSNEDLLTFGGGTKVEIK', 'koff', 0.000754),
  ('MH29 (antibody, human IgG4, V domains shown, Deimmunized MH5 derivative, human IgG4(S228P)/Ckappa IgG) VH: QVQLVQSGAEVKKPGSSVKVSCKASGYTFSSNYMIWVRQAPGQGLEWMGDINPYNGGANYAQKFQGRVTITADESTSTAYMELSSLRSEDTAVYYCAREGPYFSNLYVMDYWGRGTLVTVSS VL: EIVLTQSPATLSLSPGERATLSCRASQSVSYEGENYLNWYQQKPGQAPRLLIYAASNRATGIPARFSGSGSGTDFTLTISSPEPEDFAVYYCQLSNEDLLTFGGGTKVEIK', 'koff', 0.000813);
